Assay: qHTS assay for small molecule antagonists of peroxisome proliferator-activated receptor delta signaling (AID 588535);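 note: cells co-treated with a PPAR-delta agonist as stimulator during compound exposure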
Conditions: HEK293T PPARd-UAS-bla, beta-lactamase FRET ratio, 18 h; 460 nm channel
Records with an inconclusive call do not appear.
max response values for the compounds below.
Give the value in % but do not write % after it.

Example compounds with recorded max response:
# COMPOUND, MEASUREMENT TYPE, ASSAY VALUE
rows = [
    ("Nc1ccncc1", "max response", -23),
    ("CNCC(O)c1ccc(O)cc1 (centres undefined)", "max response", -16.7),
    ("Oc1cc(Cl)ccc1Oc1ccc(Cl)cc1Cl", "max response", 38.5),
]

Kindly review the next compound as well.
Answer with reported max response of CC(C)(C)CC(C)(C)c1ccc(O)cc1
-1.27

###

Settings: Ebola virus entry cell assay, ratio channel
The source made the active and inactive calls.
Parameter call: string, one of active, inactive

// below: answered compounds
# COMPOUND, LABEL
data = [
    ("COCCCOc1cc(C[C@@H](C[C@H](N)[C@@H](O)C[C@H](C(=O)NCC(C)(C)C(N)=O)C(C)C)C(C)C)ccc1OC", "inactive"),
    ("O=C1CCc2ccc(OCCCCN3CCN(c4cccc(Cl)c4Cl)CC3)cc2N1", "active"),
    ("CO/N=C1\\CN(c2nc3c(cc2F)c(=O)c(C(=O)O)cn3C2CC2)CC1CN (stereo not given)", "inactive"),
    ("CSc1ccc2c(c1)N(CCC1CCCCN1C)c1ccccc1S2 (stereo not given)", "active"),
]

Dear colleague, could you share the recorded outcome for COc1cc2c(cc1OC)C(=O)C(CC1CCN(Cc3ccccc3)CC1)C2 (stereo not given) when you have a moment?
inactive

###

Conditions: Ebola virus entry assay, ratio channel readout
Activity calls are given as the source filed them.
MEASUREMENT TYPE: outcome

Example compounds with recorded outcome:
# COMPOUND, ASSAY VALUE
rows = [
    ("CN1C[C@H]2c3ccccc3Oc3ccc(Cl)cc3[C@@H]2C1", "inactive"),
    ("NCC(CC(=O)O)c1ccc(Cl)cc1 (stereo unspecified)", "inactive"),
    ("NC12CC3CC(CC(C3)C1)C2", "inactive"),
    ("COCCCOc1cc(C[C@@H](C[C@H](N)[C@@H](O)C[C@H](C(=O)NCC(C)(C)C(N)=O)C(C)C)C(C)C)ccc1OC", "inactive"),
    ("O=C1c2c(O)ccc(O)c2C(=O)c2c(NCCNCCO)ccc(NCCNCCO)c21", "inactive"),
]

Kindly review the next compound as well.
Answer with reported outcome of O=C(O)c1ccc(-n2nc(-c3ccccc3O)nc2-c2ccccc2O)cc1
inactive

###

Tested on: CRL-7250
Assay: qHTS assay to identify novel small-molecules to repurpose for Merkel cell carcinoma treatment (AID 1296009); note: nearly all actives have a fitted effect of over 60% in size
Details: MCC and control cell lines, CellTiter-Glo viability, 72 h; at 44.8 µM (top of the series) unless noted; series mostly up to 44.8 µM
Inconclusive results are not listed. Activity calls are given as the source filed them. Calls come from the whole dose curve; as a rule, active = well fitted inhibition curve with a large enough effect; inconclusive = small, poorly fitted or top-dose-only effect; inactive = flat fitted curve, though single readings scatter.
MEASUREMENT TYPE: outcome

# MOLECULE, outcome
records = [
    ("C[C@H]1c2cccc(O)c2C(O)=C2C(=O)[C@]3(O)C(O)=C(C(N)=O)C(=O)[C@@H](N(C)C)[C@@H]3[C@@H](O)[C@@H]21", "inactive"),
    ("CC(S)C(=O)NCC(=O)O (stereo not drawn)", "inactive"),
    ("COc1ccccc1OCC(O)COC(N)=O (stereo not drawn)", "inactive"),
    ("CS(=O)(=O)CCNCc1ccc(-c2ccc3ncnc(Nc4ccc(OCc5cccc(F)c5)c(Cl)c4)c3c2)o1", "inactive"),
]

Answer with reported outcome of CNCCc1ccccn1
inactive

Answer with reported outcome of CO/N=C1\CN(c2nc3c(cc2F)c(=O)c(C(=O)O)cn3C2CC2)CC1CN (stereo not drawn)
inactive

Answer with reported outcome of CN(C)C(=N)N=C(N)N
inactive

Answer with reported outcome of CCCNC(=O)NS(=O)(=O)c1ccc(Cl)cc1
inactive

Answer with reported outcome of CCCNCC(O)COc1ccccc1C(=O)CCc1ccccc1 (stereo not drawn)
inactive

Answer with reported outcome of NP(N)(=O)NC(=O)c1ccc(F)cc1
inactive

Answer with reported outcome of CC(=O)[C@H]1CC[C@H]2[C@@H]3CC[C@H]4C[C@](C)(O)CC[C@]4(C)[C@H]3CC[C@]12C
inactive

Answer with reported outcome of CS(=O)(=O)OCCCCOS(C)(=O)=O
inactive

Answer with reported outcome of NCCCC(O)(P(=O)(O)O)P(=O)(O)O
inactive

Answer with reported outcome of O=C(O)C(=O)c1cn(Cc2ccccc2)c2ccc(-c3ccc(OC(F)(F)F)cc3)cc12
inactive

Answer with reported outcome of Nc1ccc(O)c(C(=O)O)c1
inactive

Answer with reported outcome of NNCCc1ccccc1
inactive

Answer with reported outcome of O=C1CC[C@@]2(O)[C@H]3Cc4ccc(O)c5c4[C@@]2(CCN3CC2CC2)[C@H]1O5
inactive

Answer with reported outcome of CN(C)CCc1c[nH]c2ccc(C[C@H]3COC(=O)N3)cc12
inactive

Answer with reported outcome of Cc1nc(-c2ccc(OCC(C)C)c(C#N)c2)sc1C(=O)O
inactive

Answer with reported outcome of NC(=O)c1cn(Cc2c(F)cccc2F)nn1
inactive

Answer with reported outcome of Cc1ccc(S(=O)(=O)NC(=O)NN2CC3CCCC3C2)cc1 (stereo not drawn)
inactive

Answer with reported outcome of O=C1NC(=O)C(c2ccccc2)(c2ccccc2)N1
inactive
